# PROTOCOL_NOTES: protein stability index of a GFP-peptide fusion (yeast GPS) (PSI 1-4); higher = more stable; sorted into four equal gates, so the index is relative within each strain
# TEST_SETTINGS: san1∆
Below, each entry is listed alongside its reported protein stability index.

Examples from the recorded data:
{"columns": ["SEQUENCE_RECORD", "protein stability index"],
 "data": [
  ["IRYNAKRRNWRRTKMNI [RPL39]", 3.07],
  ["IDSINGPDTKGQLEDFD [SMC3]", 3.18]
]}

Reported protein stability index, sequence RKPMGKRINFEKIKDIH [POP1] : ____ 3.04

Further, for KSMNKSAINQYNRRQDK [SNF2] ? 2.44

Entry GLYKMMEERDGAKFENI [AAR2] please 1.68

Same lookup for QKLHKVKKASGEIVSIN [RPL20A] , please. 3.07

Same question for GSNKAQISIIDIWSISK [YML031W/NDC1] please. 2.88

// query: VREFQRRLAFLGIKVAE [BRR2] 1.04

Same thing, different sequence: IPRTFRTPVPSTLMPGG [SNF5] 2.44

Cited source for all entries: the supplement of paper PMC9732359
